# subjectOfTest: Histamine H4 receptor (Homo sapiens, UniProt Q9H3N8)
# Sequence (Q9H3N8 whole entry): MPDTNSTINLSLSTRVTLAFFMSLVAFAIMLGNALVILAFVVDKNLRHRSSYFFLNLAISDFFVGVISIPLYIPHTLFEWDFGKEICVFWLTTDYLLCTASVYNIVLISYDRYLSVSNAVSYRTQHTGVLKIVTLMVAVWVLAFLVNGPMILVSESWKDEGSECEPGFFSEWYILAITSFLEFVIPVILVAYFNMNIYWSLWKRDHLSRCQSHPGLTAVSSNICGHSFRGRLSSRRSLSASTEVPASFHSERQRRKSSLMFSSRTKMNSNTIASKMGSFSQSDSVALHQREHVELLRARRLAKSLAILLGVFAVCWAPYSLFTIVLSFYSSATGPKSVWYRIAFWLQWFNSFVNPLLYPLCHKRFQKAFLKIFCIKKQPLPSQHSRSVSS
# measurementProtocol: Antagonist activity at human histamine H4 receptor expressed in Sf9 cells coexpressing RGS19 protein by steady-state GTPase assay
# Format: functional
Kindly return Y if reported pKb is no lower than 6; return N if it is lower.

Determine whether measured pKb meets or exceeds 6 for `N#C/N=C(/NCCCc1c[nH]cn1)NCCC(c1ccccc1)c1ccccc1`
N

Evaluate `N#C/N=C(/NCCCc1ccccc1)NCCc1c[nH]cn1` : pKb at minimum 6?
N

I'd appreciate it if you could say whether `CC(C)CN/C(=N\C#N)NCCCCCc1c[nH]cn1` has pKb at least equal to 6.
Y

Is the recorded value of pKb equal to or greater than 6 for this compound? `NC(=O)/N=C(\NCCCCc1c[nH]cn1)NCCCc1ccccc1`
Y

Quick check: does `N#C/N=C(/NCCc1c[nH]cn1)NCCC(c1ccccc1)c1ccccc1` have pKb greater than or equal to 6?
N

Exam item: decide whether the reported pKb for `NC(=O)/N=C(/NCCCc1ccccc1)NCCCc1c[nH]cn1` is at least 6.
Y

Does pKb meet or surpass 6 for `N#C/N=C(/NCCCCc1c[nH]cn1)NCCCc1ccc(F)cc1` ?
Y

# check: pKb of `N#C/N=C(/NCCCC1CCCCC1)NCCc1c[nH]cn1` is greater than or equal to 6
N

For this compound, is measured pKb 6 or higher? `CN/C(=N\C#N)NCCCCCc1c[nH]cn1`
Y

// inclusive: pKb at least 6? input: `N#C/N=C(/NCCCCCc1c[nH]cn1)NCCCc1ccccc1`
Y

Can `N#C/N=C(/NCCCCc1c[nH]cn1)NCCC(c1ccccc1)c1ccccc1` be said to have pKb at or above 6?
N

Say whether `N#C/N=C(\NCCCCCc1c[nH]cn1)NCCSc1ccccc1` shows pKb of 6 or more.
Y

Item `CCN/C(=N/C#N)NCCCCCc1c[nH]cn1` with pKb of 6 or above?
Y

Please check the record `N#C/N=C(\NCCc1ccccc1)NCCc1c[nH]cn1` and state if its pKb is at or above 6.
N

Is the recorded value of pKb equal to or greater than 6 for this compound? `N#C/N=C(\NCCSc1ccccc1)NCCc1c[nH]cn1`
N

Assess whether reported pKb for `N#C/N=C(\NCCc1c[nH]cn1)NCCc1c[nH]c2ccccc12` sits at 6 or higher.
N

Check this compound for pKb at or above 6: `N#C/N=C(/NCCCCc1c[nH]cn1)NCCCC1CCCCC1`
Y

Threshold query (pKb >= 6) on `N#C/N=C(/NCCCc1c[nH]cn1)NCCc1ccccc1`
N

Quick check, pKb >= 6? `CC(C)N/C(=N/C#N)NCCCCCc1c[nH]cn1`
Y

Would you say `N#C/N=C(\NCCCCc1ccccc1)NCCCCc1c[nH]cn1` shows pKb at minimum 6?
Y

Could you verify whether the entry `Cc1[nH]cnc1CSCCN/C(=N\C#N)NCCCc1ccccc1` shows pKb of no less than 6?
N

Could you tell me if the measured pKb of `N#C/N=C(\NCCCCc1ccccc1)NCCCc1c[nH]cn1` reaches 6 or more?
N

Please check the record `NC(=O)/N=C(/NCCCCc1ccccc1)NCCCc1c[nH]cn1` and state if its pKb is at or above 6.
Y

State whether the measured pKb reaches 6, counting equality as reaching it, for `N#C/N=C(/NCCCc1c[nH]cn1)NCCc1c[nH]c2ccccc12`
N

Given the entry `N#C/N=C(/NCCCCc1c[nH]cn1)NCCc1c[nH]c2ccccc12` , answer whether its pKb meets or surpasses 6.
N
